Experiment: photocatalytic hydrogen evolution rate (per 5 mg catalyst); higher = more photocatalytic H2 evolution; extreme values may be limits of the assay;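 further: aromatic molecules in triethylamine/methanol/water with Pt photoreduced in situ, irradiated 3 h under a 1 sun AM 1.5G solar simulator (350–1000 nm), H2 quantified by headspace gas chromatography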;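 further: listed molecule itself used as the photocatalyst at 5 mg per vial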
Details: catalyst mass (mg): 5; Pt cocatalyst (wt%): 3; sacrificial medium: triethylamine/methanol/water 1:1:1
measurementLabel: photocatalytic hydrogen evolution rate (µmol/h)

These recorded examples may help you get a feel for the data.
c1cnc2c(c1)ccc1cccnc12 ... 0.478
Brc1ccc2c(c1)Cc1cc(Br)ccc1-2 ... 0
COc1ccc(N2C(=O)c3ccc4c5ccc6c7c(ccc(c8ccc(c3c48)C2=O)c75)C(=O)N(c2ccc(OC)cc2)C6=O)cc1 ... 0
NNC(=O)COc1ccc(Br)cc1Br ... 0
O=C(c1ccccc1)c1ccncc1 ... 2.41
O=Cc1ncc[nH]1 ... 0.469

I = O=C1C(c2ccccc2)=C(c2ccccc2)C(c2ccccc2)=C1c1ccccc1
II = Brc1cccc2cc3cccc(Br)c3cc12
INPUT: Which of the two gives a bigger number for photocatalytic hydrogen evolution rate: I or II ? Refer to your chosen entry by its label in the reply.
OUTPUT: I

====

Assay: photocatalytic hydrogen evolution rate (per 5 mg catalyst); higher = more photocatalytic H2 evolution; extreme values may be limits of the assay
Settings: catalyst mass (mg): 5; Pt cocatalyst (wt%): 3; sacrificial medium: triethylamine/methanol/water 1:1:1
measurementLabel: photocatalytic hydrogen evolution rate (µmol/h)

These recorded examples may help you get a feel for the data.
N#Cc1cc(C#N)c(C#N)cc1C#N ... 0
O=C(O)c1ccc(C#Cc2cc(C#Cc3ccc(C(=O)O)cc3)cc(C#Cc3ccc(C(=O)O)cc3)c2)cc1 ... 0
Brc1cc(Br)c(Br)cc1Br ... 0
N#CCc1ccc(C#N)cc1 ... 0

a = O=Cc1ccc2ccccc2c1
b = N#Cc1cscc1C#N
c = O=C(C(=O)c1ccccc1)c1ccccc1
INPUT: Please give the order of these molecules when sorted by photocatalytic hydrogen evolution rate, largest value leading. Order the labels as requested and list them.
OUTPUT: a, c, b
(a: 9.93 µmol/h, c: 0.736 µmol/h, b: 0 µmol/h)

====

Assay: photocatalytic hydrogen evolution rate (per 5 mg catalyst); higher = more photocatalytic H2 evolution; extreme values may be limits of the assay
Conditions: catalyst mass (mg): 5; Pt cocatalyst (wt%): 3; sacrificial medium: triethylamine/methanol/water 1:1:1
measurementLabel: photocatalytic hydrogen evolution rate (µmol/h)

c1ccc(C(c2ccccc2)c2ccccc2)cc1 ... 0
COC(=O)c1nc(N)c(Br)cc1Br ... 0
N#Cc1ccc(Br)cc1 ... 0

====

Experiment: photocatalytic hydrogen evolution rate (per 5 mg catalyst); higher = more photocatalytic H2 evolution; extreme values may be limits of the assay
Details: catalyst mass (mg): 5; Pt cocatalyst (wt%): 3; sacrificial medium: triethylamine/methanol/water 1:1:1
measurementLabel: photocatalytic hydrogen evolution rate (µmol/h)

O=c1[nH]cc[nH]1 ... 0
Brc1ccc2c(c1)[nH]c1cc(Br)ccc12 ... 0
NNC(=O)c1cc(Br)c(O)c(Br)c1 ... 0

1 = O=Cc1cc(O)cc(F)c1
2 = Cc1ccc(N(c2ccc(C)cc2)c2ccc(C=O)cc2)cc1
3 = CC1(C)c2cc(B3OC(C)(C)C(C)(C)O3)ccc2-c2ccc(B3OC(C)(C)C(C)(C)O3)cc21
INPUT: Arrange the 3 molecules by rising photocatalytic hydrogen evolution rate, starting with the smallest. Order the labels as requested and list them.
OUTPUT: 1, 3, 2

====

Test: photocatalytic hydrogen evolution rate (per 5 mg catalyst); higher = more photocatalytic H2 evolution; extreme values may be limits of the assay
Conditions: catalyst mass (mg): 5; Pt cocatalyst (wt%): 3; sacrificial medium: triethylamine/methanol/water 1:1:1
measurementLabel: photocatalytic hydrogen evolution rate (µmol/h)

These recorded examples may help you get a feel for the data.
CC(C)(C)c1cc2ccc3c(Br)cc(Br)c4ccc(c1)c2c34 ... 0.121
N#Cc1ccccc1-c1ccccc1C#N ... 0
c1ccc2c(c1)CCc1ccccc1N2 ... 0
Nc1cc(Br)ccc1-c1ccc(Br)cc1N ... 0.0732
c1csc(-c2ccc(-c3cccs3)c3nsnc23)c1 ... 0.84

1 = CC(C)c1cc(C(C)C)c(-c2ccccc2P(C(C)(C)C)C(C)(C)C)c(C(C)C)c1
2 = O=C(O)c1ccc(-c2cc(-c3ccc(C(=O)O)cc3)c(-c3ccc(C(=O)O)cc3)cc2-c2ccc(C(=O)O)cc2)cc1
INPUT: Could you tell me which of 1 and 2 has the lower photocatalytic hydrogen evolution rate reading? Refer to your chosen entry by its label in the reply.
OUTPUT: 1
(1: 0 µmol/h, 2: 0.052 µmol/h)

====

Assay: photocatalytic hydrogen evolution rate (per 5 mg catalyst); higher = more photocatalytic H2 evolution; extreme values may be limits of the assay
Conditions: catalyst mass (mg): 5; Pt cocatalyst (wt%): 3; sacrificial medium: triethylamine/methanol/water 1:1:1
measurementLabel: photocatalytic hydrogen evolution rate (µmol/h)

Cc1ccc(C#N)cc1N ... 0
Brc1ccc(Br)cc1 ... 0
Fc1ccc(-c2nc(-c3ccccc3)nc(-c3ccccc3)n2)cc1 ... 0
N#Cc1nc(N)c(N)nc1C#N ... 0
Cc1c(CBr)c(C)c(CBr)c(C)c1CBr ... 0
Cc1[nH]c(C)c(C=O)c1C=O ... 0
Cc1cnc(C#N)c(C#N)n1 ... 0
O=c1oc(=O)c2cc3c(=O)oc(=O)c3cc12 ... 0
N#Cc1cncc(Br)c1 ... 0
Oc1ccc2c(c1)Oc1cc(O)ccc1C21c2ccccc2-c2ccccc21 ... 0
O=C1C=CC(=O)N1c1ccccc1 ... 0
O=C(n1ccnc1)n1ccnc1 ... 0
Nc1c(Br)ccc(Br)c1N ... 0
C#Cc1ccc(C#N)cc1 ... 0
c1ccc2cc3ccccc3cc2c1 ... 0
Cc1[nH]c(C=O)cc1C#N ... 0
Oc1c(Br)cc(Br)cc1Br ... 0.0139

====

Experiment: photocatalytic hydrogen evolution rate (per 5 mg catalyst); higher = more photocatalytic H2 evolution; extreme values may be limits of the assay
Conditions: catalyst mass (mg): 5; Pt cocatalyst (wt%): 3; sacrificial medium: triethylamine/methanol/water 1:1:1
measurementLabel: photocatalytic hydrogen evolution rate (µmol/h)

I = Fc1cc(Br)ccc1Br
II = O=C(c1ccccc1)c1ccccc1
III = N#CCc1ccc(-c2ccc(CC#N)cn2)nc1
INPUT: Endpoint returns the given molecules ordered by ascending photocatalytic hydrogen evolution rate. Order the labels as requested and list them.
OUTPUT: I, III, II

a = N#Cc1ccc(Br)nc1
b = O=C1CCc2cccc(O)c21
INPUT: Could you tell me which of a and b has the lower photocatalytic hydrogen evolution rate reading? Refer to your chosen entry by its label in the reply.
OUTPUT: a

====

Test: photocatalytic hydrogen evolution rate (per 5 mg catalyst); higher = more photocatalytic H2 evolution; extreme values may be limits of the assay
Conditions: catalyst mass (mg): 5; Pt cocatalyst (wt%): 3; sacrificial medium: triethylamine/methanol/water 1:1:1
measurementLabel: photocatalytic hydrogen evolution rate (µmol/h)

N#Cc1cccnc1-c1ncccc1C#N ... 0
Brc1ccc2[nH]c3ccc(Br)cc3c2c1 ... 0
BrCc1cc(Br)cc(Br)c1 ... 0
COc1ccc(Nc2ccc(OC)cc2)cc1 ... 0.055
N#Cc1ccc(-c2ccc(C#N)cn2)nc1 ... 0
Brc1cc(Br)cc(-c2cc(Br)cc(Br)c2)c1 ... 0.0514
c1ccc2nc3ccccc3nc2c1 ... 0
N#Cc1cncc(-c2cncc(C#N)c2)c1 ... 0

a = c1ccc(-c2nc3ccccc3[nH]2)cc1
b = Nc1nc(Br)cnc1Br
INPUT: Which of the two gives a bigger number for photocatalytic hydrogen evolution rate: a or b ? Refer to your chosen entry by its label in the reply.
OUTPUT: b
(b: 0.0666 µmol/h, a: 0 µmol/h)

P = C#Cc1ccc(C#C)cc1
Q = O=C(c1ccccc1)c1cc(C(=O)c2ccccc2)cc(C(=O)c2ccccc2)c1
INPUT: Could you tell me which of P and Q has the lower photocatalytic hydrogen evolution rate reading? Refer to your chosen entry by its label in the reply.
OUTPUT: P
(P: 0 µmol/h, Q: 14.2 µmol/h)

P = Cc1cc(C#N)cnc1Br
Q = O=Cc1ccc(Oc2ccc(C=O)cc2)cc1
INPUT: Which of the two gives a bigger number for photocatalytic hydrogen evolution rate: P or Q ? Refer to your chosen entry by its label in the reply.
OUTPUT: Q

====

Assay: photocatalytic hydrogen evolution rate (per 5 mg catalyst); higher = more photocatalytic H2 evolution; extreme values may be limits of the assay
Conditions: catalyst mass (mg): 5; Pt cocatalyst (wt%): 3; sacrificial medium: triethylamine/methanol/water 1:1:1
measurementLabel: photocatalytic hydrogen evolution rate (µmol/h)

O=Cc1ccc(-c2ccccn2)cc1 ... 5.1
Brc1cnc(Br)c2nsnc12 ... 0
Cc1c(C)c(Br)c(C)c(C)c1Br ... 0
N#Cc1ccc(O)cc1 ... 0
N#Cc1c(-n2c3ccccc3c3ccccc32)c(-n2c3ccccc3c3ccccc32)cc(-n2c3ccccc3c3ccccc32)c1-n1c2ccccc2c2ccccc21 ... 1.65

1 = c1ccc2c(c1)c1ccccc1n2-c1ccc(N(c2ccc(-n3c4ccccc4c4ccccc43)cc2)c2ccc(-n3c4ccccc4c4ccccc43)cc2)cc1
2 = O=Cc1ccc(-c2ccc(C=O)cn2)nc1
INPUT: Which of the two gives a bigger number for photocatalytic hydrogen evolution rate: 1 or 2 ? Refer to your chosen entry by its label in the reply.
OUTPUT: 2
(2: 0.927 µmol/h, 1: 0 µmol/h)
